Taken from PubChem BioAssay (NCI).

test system: NCI/ADR-RES ovarian; assay: NCI-60 one-dose screen, 48 h (100 = growth as untreated, 0 = no growth, -100 = all killed); settings: 10 µM unless noted
About 83,000 compounds went through this panel and 20% of them were active in at least one assay; those are over-represented in the sample as a whole.
measure: growth (%)
Write the answer as a number in %, unit excluded.

{"columns": ["compound", "growth / %"],
 "data": [
  ["CCCCCCC/C(=N\\N=C(N)N)c1ccc(O)cc1", 69.9],
  ["O=C(CCc1nnc2sc(-c3ccc(Cl)cc3Cl)nn12)c1nc2ccccc2[nH]1", -0.815],
  ["Cc1nc2cc(NC(=O)CN3CCN(CCN4C(=O)c5cccc6cccc(c56)C4=O)CC3)ccc2s1", 45.9]
]}

Entry CC[C@H](C)C(=O)O[C@H]1C[C@@H](C)C=C2C=C[C@H](C)[C@H](CC[C@@H]3C[C@@H](O)CC(=O)O3)[C@H]21 , system NCI/ADR-RES ovarian: what growth was measured?
32.1

###

Test system: HCC-2998 colon
Assay: NCI-60 one-dose screen, 48 h (100 = growth as untreated, 0 = no growth, -100 = all killed)
Settings: 10 µM unless noted
Description: Growth inhibition of the HCC-2998 human tumor cell line is measured as a screen for anti-cancer activity. Cells are grown in 96 well plates and exposed to the test compound for 48 hours. Compounds are tested at a single concentration, which is 10^-5 M for most compounds. The reported endpoint is percent growth (GI% or GIPRCNT), where numbers from 0 - 100% represent growth inhibition, and numbers from -100% - 0 represent cell death. For example, a value of 40 represents 60% growth inhibition. […]
The panel holds about 83,000 compounds, 20% with a hit somewhere; the sample as a whole holds those more often.
Examples of compounds with documented growth follow.
Numbers only; they are read as %.

{"columns": ["compound", "valueObserved"],
 "data": [
  ["COc1cccc2c1C(=O)c1c(O)c3c(c(O)c1C2=O)C[C@@](O)(/C(C)=N/NC(=O)c1cccc([N+](=O)[O-])c1)C[C@@H]3OC1CC(N)C(O)C(C)O1 (some centres undefined)", -58.2],
  ["Fc1ccc(-c2nnc(/C=C/c3cn(-c4ccccc4)nc3-c3ccccc3)o2)cc1", 95],
  ["O=C(Nc1ccc(Cl)cc1)c1cc2c(cc1O)[nH]c1ccccc12", -21.5]
]}

Record request: growth value, item Clc1ccc(CCC(Cn2ccnc2)Sc2c(Cl)cccc2Cl)cc1 (centres undefined)
56.6

I'd like to know its growth. The compound in question is CC(=O)Oc1ccc(C23c4ccccc4C2(OC(C)=O)c2cc(OC(C)=O)ccc23)cc1 (centres undefined)
59.2

Using the record for CC1SC(c2c(Cl)cccc2Cl)N(NC(=O)c2[nH]c3ccc(F)cc3c2-c2ccccc2)C1=O (centres undefined) , report its growth.
11.2

Look up growth for this compound: CCOC(=O)c1c(C)c(C(=O)OCC)n(C)c1C
110

Param item = O=C(C(Br)Br)C(Br)C(Br)c1ccccc1 (centres undefined) ; retrieve measured growth.
112

Which measured growth value corresponds to Clc1cc(Cl)c(OCC#CI)cc1Cl ?
109

# lookup: growth of CN(C)c1ccc2[nH]c3c(C(N)=O)cc(=O)c(=O)c=3oc2c1
97.7
